Listed sequences paired with reported PBM binding z-score
System: LXRb:RXRa (NR concentration 270 nM, RXRa partner concentration 90 nM)
assay.notes: PBM binding z-score (relative to random genomic background probes); higher = stronger binding; sequences stand for … in GC…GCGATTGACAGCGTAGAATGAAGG

sequence.text: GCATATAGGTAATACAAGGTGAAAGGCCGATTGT
subject.of.test: LXRb:RXRa (NR concentration 270 nM, RXRa partner concentration 90 nM)
PBM binding z-score: 0.488
--
sequence.text: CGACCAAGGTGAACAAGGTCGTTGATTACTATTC
subject.of.test: LXRb:RXRa (NR concentration 270 nM, RXRa partner concentration 90 nM)
PBM binding z-score: 1.83
--
sequence.text: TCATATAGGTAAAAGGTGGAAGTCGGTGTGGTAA
subject.of.test: LXRb:RXRa (NR concentration 270 nM, RXRa partner concentration 90 nM)
PBM binding z-score: 1.22
--
sequence.text: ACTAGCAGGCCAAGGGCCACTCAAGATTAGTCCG
subject.of.test: LXRb:RXRa (NR concentration 270 nM, RXRa partner concentration 90 nM)
PBM binding z-score: -1
--
sequence.text: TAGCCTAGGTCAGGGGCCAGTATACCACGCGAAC
subject.of.test: LXRb:RXRa (NR concentration 270 nM, RXRa partner concentration 90 nM)
PBM binding z-score: 1.88
--
sequence.text: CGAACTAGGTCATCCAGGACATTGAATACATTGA
subject.of.test: LXRb:RXRa (NR concentration 270 nM, RXRa partner concentration 90 nM)
PBM binding z-score: 2.52
--
sequence.text: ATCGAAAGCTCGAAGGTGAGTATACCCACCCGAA
subject.of.test: LXRb:RXRa (NR concentration 270 nM, RXRa partner concentration 90 nM)
PBM binding z-score: -0.458
--
sequence.text: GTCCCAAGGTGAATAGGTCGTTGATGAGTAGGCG
subject.of.test: LXRb:RXRa (NR concentration 270 nM, RXRa partner concentration 90 nM)
PBM binding z-score: 0.623
--
sequence.text: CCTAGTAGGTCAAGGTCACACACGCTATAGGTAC
subject.of.test: LXRb:RXRa (NR concentration 270 nM, RXRa partner concentration 90 nM)
PBM binding z-score: 4.64
--
sequence.text: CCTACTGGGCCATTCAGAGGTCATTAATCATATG
subject.of.test: LXRb:RXRa (NR concentration 270 nM, RXRa partner concentration 90 nM)
PBM binding z-score: 3.81
--
sequence.text: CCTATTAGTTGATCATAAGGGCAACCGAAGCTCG
subject.of.test: LXRb:RXRa (NR concentration 270 nM, RXRa partner concentration 90 nM)
PBM binding z-score: 0.291
--
sequence.text: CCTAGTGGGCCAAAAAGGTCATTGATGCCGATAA
subject.of.test: LXRb:RXRa (NR concentration 270 nM, RXRa partner concentration 90 nM)
PBM binding z-score: 3.87
--
sequence.text: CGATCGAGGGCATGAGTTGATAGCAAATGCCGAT
subject.of.test: LXRb:RXRa (NR concentration 270 nM, RXRa partner concentration 90 nM)
PBM binding z-score: -0.0334
--
sequence.text: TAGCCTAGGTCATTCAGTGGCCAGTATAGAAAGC
subject.of.test: LXRb:RXRa (NR concentration 270 nM, RXRa partner concentration 90 nM)
PBM binding z-score: 2.39
--
sequence.text: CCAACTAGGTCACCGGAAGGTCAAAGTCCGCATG
subject.of.test: LXRb:RXRa (NR concentration 270 nM, RXRa partner concentration 90 nM)
PBM binding z-score: 5.35
--
sequence.text: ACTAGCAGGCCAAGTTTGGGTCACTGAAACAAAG
subject.of.test: LXRb:RXRa (NR concentration 270 nM, RXRa partner concentration 90 nM)
PBM binding z-score: 0.671
--
sequence.text: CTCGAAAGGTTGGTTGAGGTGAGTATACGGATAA
subject.of.test: LXRb:RXRa (NR concentration 270 nM, RXRa partner concentration 90 nM)
PBM binding z-score: 0.38
--
sequence.text: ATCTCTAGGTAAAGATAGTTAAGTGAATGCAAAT
subject.of.test: LXRb:RXRa (NR concentration 270 nM, RXRa partner concentration 90 nM)
PBM binding z-score: 0.142
